Taken from PubChem BioAssay (NCATS).

Experiment: Tertiary RLuc qRT-PCR qHTS assay for Zika virus inhibitors (AID 1347169); note: top concentration of the series differs between compounds; % is set by controls: 0 for no effect and ±100 for the full control effect; nearly all actives have a fitted effect of over 55% in size
Condition Set: infected Vero cells, reporter luminescence, 48-72 h; series mostly up to 45.9 µM
Inconclusive results are not listed. Active and inactive are the calls of the source. Calls come from the whole dose curve; as a rule, active = well fitted inhibition curve with a large enough effect; inconclusive = small, poorly fitted or top-dose-only effect; inactive = no such curve, though single readings can be large or run the other way.
Measured Metric: activity change, negative = inhibition

>>> print(df.to_string())
                                   molecule                            value
0  CC(C)(Sc1cc(C(C)(C)C)c(O)c(C(C)(C)C)c1)Sc1cc(C(C)(C)C)c(O)c(C(C)(C)C)c1  -19.1% [at 0.566 µM] (inactive)
1  COc1c(N2CCNC(C)C2)c(F)cc2c(=O)c(C(=O)O)cn(C3CC3)c12 (stereo not given)                         inactive
2  Nc1nc(N)c2nc(CNc3ccc(C(=O)NC(CCC(=O)O)C(=O)O)cc3)cnc2n1 (stereo not given)                         inactive
3  CCCc1nc(C)c2c(=O)[nH]c(-c3cc(S(=O)(=O)N4CCN(CC)CC4)ccc3OCC)nn12                         inactive
4  COc1ccc(-c2ccc3cc(C(=O)O)ccc3c2)cc1C12CC3CC(CC(C3)C1)C2   -1.33% [at 5.25 µM] (inactive)

----------
Experiment: qHTS drug screen for cell cycle checkpoint inhibitors in PARPi-resistant BRCA-mutant ovarian cancer cell lines. (AID 1963452)
Condition Set: PEO1/OlaR viability, CellTiter-Glo luminescence, 96 h; measured here: PEO4 Z-AUC; stronger effect = lower value
Listed here: items and their measured Z-AUC.
Measured Metric: Z-AUC

>>> print(df.to_string())
                                    molecule   value
 0                            NC(=O)c1cccnc1    1.21
 1            CCCOc1ccc(C(=O)OCCN(CC)CC)cc1N   0.987
 2                         Nc1[nH]c(=O)ncc1F    1.51
 3  O=c1oc2c(O)c(O)cc3c(=O)oc4c(O)c(O)cc1c4c23   0.513
 4           Cc1nnc(NS(=O)(=O)c2ccc(N)cc2)s1    1.46
 5       COc1ncnc(NS(=O)(=O)c2ccc(N)cc2)c1OC    1.91
 6  COc1cc2nc(N3CCCN(C)CC3)nc(NC3CCN(Cc4ccccc4)CC3)c2cc1OC   0.922
 7  CN(CCOc1ccc(CC2SC(=O)NC2=O)cc1)c1ccccn1 (centres undefined)   0.826
 8                    CC1=CC(=O)c2ccccc2C1=O   0.252
 9  CC(C)C[C@H](NC(=O)[C@H](CCc1ccccc1)NC(=O)CN1CCOCC1)C(=O)N[C@@H](Cc1ccccc1)C(=O)N[C@@H](CC(C)C)C(=O)[C@@]1(C)CO1   -2.77
10  O=C(O)c1ccc(-n2nc(-c3ccccc3O)nc2-c2ccccc2O)cc1   -0.47
11  CNC1CCCN(c2c(F)cc3c(=O)c(C(=O)O)cn(C4CC4)c3c2OC)C1 (centres undefined)    1.09
12  CCOC(=O)[C@H](CCc1ccccc1)N[C@H]1CS[C@H](c2cccs2)CN(CC(=O)O)C1=O  -0.726
13  Cc1oc(=O)oc1CN1CCN(c2cc3c(cc2F)c(=O)c(C(=O)O)c2n3C(C)S2)CC1 (centres undefined)  -0.652
14  CCOc1cc(N)c(Cl)cc1C(=O)NCC1CN(Cc2ccc(F)cc2)CCO1 (centres undefined)    1.21
15                           NNC(=O)c1ccncc1    1.56
16                       CCCc1cc(C(N)=S)ccn1    1.99
17       Cc1cccc(N(C)C(=S)Oc2ccc3ccccc3c2)c1   0.795
18  CCOC(=O)c1ccc(C#Cc2ccc3c(c2)C(C)(C)CCS3)nc1    1.15

----------
Experiment: Quantitative High-Throughput drug screen in 47 multiple myeloma cell lines against the NCATS MIPE library collection: MMM1_PLB cell viability assay (AID 1918976); note: potency is the fitted concentration of half-maximal effect; nearly all actives have a fitted effect of over 35% in size
Condition Set: MMM1 myeloma cells viability, CellTiter-Glo, 48 h; series mostly up to 45.8 µM
Records with an inconclusive call do not appear. Activity calls are given as the source filed them. Calls come from the whole dose curve; as a rule, active = well fitted cell-killing curve with a large enough effect; inconclusive = small, poorly fitted or top-dose-only effect, or effect the other way; inactive = no such curve, though single readings can be large or run the other way.
Documented Potency across a set of compounds
Measured Metric: Potency

>>> df
                                   compound  measured_metric              value
0  CC(C)NCC(O)c1ccc(NS(C)(=O)=O)cc1 (stereo not given)          Potency   2090 nM (active)
1  CC(=O)Oc1ccccc1C(=O)Nc1ncc([N+](=O)[O-])s1          Potency  10800 nM (active)
2  CC1CC2C3CCC4=CC(=O)C=C[C@]4(C)[C@@]3(F)[C@@H](O)C[C@]2(C)[C@@]1(O)C(=O)CO (stereo not given in full)          Potency   26.4 nM (active)
3  Nc1nc(F)nc2c1ncn2[C@@H]1O[C@H](CO)[C@@H](O)[C@@H]1O          Potency    469 nM (active)

----------
Experiment: Quantitative High-Throughput drug screen in 47 multiple myeloma cell lines against the NCATS MIPE library collection: Karpas620_DSMZ cell viability assay (AID 1918959); note: nearly all actives have a fitted effect of over 30% in size
Condition Set: Karpas620 myeloma viability, CellTiter-Glo ATP luminescence, 48 h; series mostly up to 45.8 µM
Results filed as inconclusive are left out. Active and inactive are the calls of the source. The call rests on the fitted dose curve; in most records, active means well fitted cell-killing curve with a large enough effect; inconclusive means small, poorly fitted or top-dose-only effect, or effect the other way; inactive means no such curve, though single readings can be large or run the other way.
Classes used: True (active), False (inactive)

>>> df
                                   compound  assigned_label
0  CC(C)(C#N)c1cc(Cn2cncn2)cc(C(C)(C)C#N)c1           False
1                         Nc1[nH]c(=O)ncc1F           False
2  CCC(=O)O[C@]1(C(=O)SCF)[C@H](C)C[C@H]2[C@@H]3C[C@H](F)C4=CC(=O)C=C[C@]4(C)[C@@]3(F)[C@@H](O)C[C@@]21C           False
3  CN(C)CCc1c[nH]c2ccc(CS(=O)(=O)N3CCCC3)cc12           False
4  Cc1ccc(S(=O)(=O)N[C@@H](Cc2ccccc2)C(=O)CCl)cc1            True
5  CCn1cc(C(=O)O)c(=O)c2cc(F)c(N3CCN(C)CC3)cc21           False
6  O=C(N[C@H](CO)[C@H](O)c1ccc([N+](=O)[O-])cc1)C(Cl)Cl           False
7  CC1=C(C(=O)O)N2C(=O)[C@@H](NC(=O)C(N)c3ccccc3)[C@H]2SC1 (stereo not given in full)           False
8  COc1cc2c(Nc3ccc(Br)cc3F)ncnc2cc1OCC1CCN(C)CC1           False
9  O=c1oc2c(O)c(O)cc3c(=O)oc4c(O)c(O)cc1c4c23           False

----------
Experiment: Cellular Toxicity (caspase-3) NIH 3T3 (AID 666);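 note: caspase signal read after 16 h compound exposure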;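 for caspase-3 activation: 0% = DMSO basal and 100% = 100 µM tamoxifen stimulation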
Condition Set: NIH 3T3 caspase-3 activation, apoptosis/toxicity; series mostly up to 92.2 µM
Inconclusive results are not listed. Calls of active or inactive are those of the source. Calls follow the shape of the dose curve; as a rule, active = well fitted activation curve with a large enough effect; inconclusive = small, poorly fitted or top-dose-only effect, or effect the other way; inactive = flat fitted curve, though single readings scatter.
Outcome codes: YES for active, NO for inactive

>>> df
                            chemical_smiles  assigned_label
0  C[C@]12C=CC(=O)C=C1CC[C@@H]1[C@@H]2C(=O)C[C@@]2(C)[C@H]1CC[C@]2(O)C(=O)CO              NO
1  CC[C@H](C)C(=O)O[C@H]1C[C@@H](C)C=C2C=C[C@H](C)[C@H](CC[C@@H]3C[C@@H](O)CC(=O)O3)[C@H]21              NO
2  CN(C)c1ccc(C(=C2C=CC(=[N+](C)C)C=C2)c2ccc(N(C)C)cc2)cc1             YES
3  COc1ccc2cc3[n+](cc2c1OC)CCc1cc2c(cc1-3)OCO2              NO
4          Cc1noc(NS(=O)(=O)c2ccc(N)cc2)c1C              NO
5                        CCc1cc(C(N)=S)ccn1              NO
6                           NNC(=O)c1ccncc1              NO
7  CC(=O)[C@H]1CC[C@H]2[C@@H]3CCC4=CC(=O)CC[C@]4(C)[C@H]3CC[C@]12C              NO
8   N=C(N)c1ccc(OCCCCCOc2ccc(C(=N)N)cc2)cc1              NO
9                   NC(N)=NC(N)=NCCc1ccccc1              NO
